Overview of recorded pKd for various binders
measured_target: T1, human CD39 (Accession No. NM_001776.6) expressed on cells (human, UniProt P49961 1-510)
T1 construct: whole, on cells; On Jurkat, 293T or SK-MEL28 cells; also called Jurkat/CD39; 293T/CD39
T1 sequence (looked up): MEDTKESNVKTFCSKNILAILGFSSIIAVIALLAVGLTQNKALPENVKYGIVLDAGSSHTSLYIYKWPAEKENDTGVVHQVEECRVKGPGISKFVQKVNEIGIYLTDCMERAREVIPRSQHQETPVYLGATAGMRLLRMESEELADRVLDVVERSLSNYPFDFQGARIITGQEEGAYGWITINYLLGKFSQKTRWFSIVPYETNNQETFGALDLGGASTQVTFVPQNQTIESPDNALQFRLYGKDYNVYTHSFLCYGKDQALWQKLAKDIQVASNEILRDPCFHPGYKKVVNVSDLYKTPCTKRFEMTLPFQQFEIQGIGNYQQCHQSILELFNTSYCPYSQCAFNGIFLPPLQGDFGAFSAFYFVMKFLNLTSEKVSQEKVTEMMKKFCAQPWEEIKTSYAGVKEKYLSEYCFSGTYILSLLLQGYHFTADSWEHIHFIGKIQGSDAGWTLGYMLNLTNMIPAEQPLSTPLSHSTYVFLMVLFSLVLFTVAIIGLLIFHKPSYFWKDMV
method_description: flow cytometry, 293T/TIM-3 + CD39 cells, KD from MFI
Units for pKd: none; it is -log10 of a concentration expressed in mol/L.

Use these answered entries as a reference point.
binder | pKd
mAnE67_LA (antibody, V domains shown, also called IgG1-LALA antibody of anti-CD39 antibody mAnE67) VH: EVQLVESGGGLVKPGGSRKLSCAASGFTFSDYGMHWVRQAPEKGLEWVAYISSGSSIIYYADTVKGRFTISRDNAKNTLFLQMTGLRSEDTAMYYCARKDYPYAMDYWGQGTSLAVSS VL: SIVMTQTPKFMSTSVGDRVSVTCKASQNVGTNVAWYQQKPGQSPKALIYWASNRFTGVPDRFTGSGSGTDFTLTISNVQSEDLADYFCQQYSSSPYTFGSGTKLEIK | 8.44
6-3hIG_sc (antibody, scFv-Fc homodimer, anti-CD39; also called scFv-Fc homodimeric antibody of anti-CD39_scFv antibody (humanized) 6-3hIG; not shown: GGGG linker and Fc-LALA (human IgG1 Fc with L234A and L235A)) scFv: QVQLVQSGAELVKPGASVKLSCKASGFSIKDTYVHWVKQAPGKGLEWIGKIDPANVNTKFDPKFQGRVTITADTSTNTAYLQLSSLRSEDTAVYYCALYGYDDDAYYFDYWGQGTLVTVSSGGGGSGGGGSGGGGSGGGGSEIVLTQSPASLSVSPGERATISCRASESVDNYGISFMNWFQQKPGQAPKLLIYAASNQGSGVPARFSGSGSGTDFTLTISSLEPEDFAVYYCQQSKEVPYTFGQGTKLEIK | 7.57
6-3hIG_LA (antibody, V domains shown, IgG1LALA homodimeric antibody; also called IgG1LALA homodimeric antibody of anti-CD39 antibody (humanized) 6-3hIG) VH: QVQLVQSGAELVKPGASVKLSCKASGFSIKDTYVHWVKQAPGKGLEWIGKIDPANVNTKFDPKFQGRVTITADTSTNTAYLQLSSLRSEDTAVYYCALYGYDDDAYYFDYWGQGTLVTVSS VL: EIVLTQSPASLSVSPGERATISCRASESVDNYGISFMNWFQQKPGQAPKLLIYAASNQGSGVPARFSGSGSGTDFTLTISSLEPEDFAVYYCQQSKEVPYTFGQGTKLEIK | 7.77

Problem: For the binder Tre_291_sc (antibody, scFv-Fc homodimer, anti-CD39 (mouse variable regions); not shown: linker and Fc-LALA (human IgG1 Fc with L234A and L235A)) scFv: QVQLKQSGPGLVQPSQSLSITCTVSGFSLTSYGVHWVRQSPGKGLEWLGVIWRRGSTDYNAAFMSRLSITKDTSKSQVFFKMNSLQTDDTAIYYCAGVRGDAMDYWGQGTSVTVSSGGGGSGGGGSGGGGSGGGGSDIVMTQSHKSMSTSVGDRVSVTCKASQNVGTNVAWYQQKPGQSPKALIYSASYRYSGVPDRFTGSGSGTDFTLTISNVQSEDLAEYFCQQYNSYPLTFGGGTKLEIK , give its reported pKd.
Solution: 8.15

Where these numbers come from: patent US20260085127A1
